# Test system: PC-3
# Test details: NCI tumour cell line growth inhibition, 48 h
Activity calls are given as the source filed them. No stated cut-off is given here; in the data, active = GI50 up to about 1.1 µM and inactive = higher.
Recorded endpoint: GI50

Known results for compounds:
O=C1Nc2ccccc2S/C1=C\c1ccccc1C(F)(F)F    > 100 µM (inactive)
COc1cc2c(cc1OCCCC(=O)Nc1cc(C(=O)Nc3cc(C(=O)Nc4cc(C(=O)NCCCN(C)C)n(C)c4)n(C)c3)n(C)c1)N=C[C@@H]1CCCN1C2=O    2.28 µM (inactive)
C=CCn1c(=O)c(C)cn(COCCO)c1=O    > 100 µM (inactive)
Cc1c(S(=O)(=O)N/C(=N\O)Nc2ccc(Cl)cc2)sc2ccc(Cl)cc12    17.1 µM (inactive)
C=CCOc1ccc2c(C)cc(=O)oc2c1C    35.3 µM (inactive)

Here are 5 compounds. What values of GI50 were reported for them?
1. OCC1OC(NC(=S)NCCC(F)(F)C(F)(F)C(F)(F)C(F)(F)C(F)(F)C(F)(F)F)C(O)C(O)C1O (stereo not given)
2. NC(=O)NCCCC(NC(=O)OCCCCn1ccc(=O)[nH]c1=O)C(=O)O (stereo not given)
3. O=C(NCCNCCCNC(=O)c1cc(-c2ccccc2)nc2ccccc12)c1cccc(O)c1O
4. O=P1(c2ccccc2)C(c2ccccc2)=CC=C1c1ccccc1
5. O=c1[nH]nc(-c2ccccc2)c2[nH]c3c(c12)Cc1ccccc1-3

1: 43 µM (inactive); 2: > 100 µM (inactive); 3: 5.94 µM (inactive); 4: 15.3 µM (inactive); 5: 4.47 µM (inactive)

----------
# Test system: SK-MEL-5
# Test details: NCI tumour cell line growth inhibition, 48 h
The source made the active and inactive calls. Rule as the data show it: active = GI50 up to about 1.1 µM and inactive = higher. *1 amine or outer side, *2 acyl side, *3 side chain or, on linkers, in order; H or OH if unused. Where a SMILES comes first, the peptide text is derived from it. Bridges are numbered along the chain shown (N, C = ends). [ ]: non-standard residue; d: D form. ξ: configuration not given here. X10 = CCC(C)C(N[*:1])C(O)CC(=O)O[C@H](C(=O)C(C)C(=O)[*:2])C(C)C; NMeY = CN[C@@H](Cc1ccc(O)cc1)C(=O)O; ξNMeL = CNC(CC(C)C)C(=O)O; ξT = CC(O)C(N)C(=O)O
Give your call using only these classes: active, inactive

Record excerpt, results attached:
CC(C)c1ccccc1SCc1cc(=O)cc(CSc2ccccc2C(C)C)o1    inactive
CC(C)=C=CP(=O)(O)c1ccccc1    inactive

Fill in: this test's call for CCC(C)C1NC(=O)C(NC(=O)C(CC(C)C)N(C)C(=O)[C@@H]2CCCN2)C(C)OC(=O)[C@H](Cc2ccc(OC)cc2)N(C)C(=O)[C@@H]2CCCN2C(=O)[C@H](CC(C)C)NC(=O)C(C)C(=O)[C@H](C(C)C)OC(=O)CC1O (stereo partly specified) (H-P[ξNMeL][ξT][X10]LP[NMeY](Me); ester 3-C) is ___
active

Fill in: this test's call for CN(C)CCCN1c2ccc([N+](=O)[O-])cc2CCc2cccc([N+](=O)[O-])c21 is ___
inactive

Fill in: this test's call for Cc1ccc([N+](=O)[O-])c2c(NCC(O)CO)ccnc12 (stereo unspecified) is ___
inactive

Fill in: this test's call for Cc1ccccc1NC(=O)Cc1nc2ccccc2s1 is ___
inactive
